Tested on: HEL
Measurement Protocol: Antiproliferative activity against human HEL cells harboring JAK2 V617F mutant assessed as inhibition of cell growth incubated for 72 hrs by MTT assay
Assay type: functional, cell-based
pIC50: −log10 of the molar value.
pIC50 listing for selected compounds.
Outcome Measure: pIC50

COc1ccc([C@H](C)NC(=O)CSc2nc3ccc(NC(=O)c4ccc(OCCN(C)C)c(C)c4OC)cc3s2)cc1
5.30
NS(=O)(=O)c1cccc2c1C(=O)c1cccc(O)c1C2=O
5.84
O=[N+]([O-])c1ccc2c(c1)S(=O)(=O)C=C2
5.80
